Exercise: state measured solubility (g/100 g solution) for each of the compounds provided.
experiment: xn = mol fraction of the nth substance listed, in the solute-free solvent; details: 303.15 K; x2 = 0.3103
Answers are plain numbers.

| compound | property | obs_value |
| --- | --- | --- |
| Nc1cccc2ccncc12 + CCCO + O | solubility (g/100 g solution) | 1.33 |
| CN1CCC(N(Cc2cccs2)c2ccccc2)CC1 + CC(C)O + O | solubility (g/100 g solution) | 1.81 |

For each listed entry, give its solubility (g/100 g solution).
1. CN1CCC(N(Cc2cccs2)c2ccccc2)CC1 + CCCO + O
2. Cc1ccc2cc(Br)ccc2n1 + CC(C)O + O
3. Nc1cccc2ccncc12 + CC(C)O + O

1. 2.26
2. 1.04
3. 1.09
